biological target: UniProt P14174; assay: Inhibition of human recombinant MIF tautomerase at up to 0.1 uM
Assign yes whenever inhibition does not fall below 30%; assign no whenever it does.

Please review the following examples before continuing.
>  <CHEMICAL SMILES>
COc1cccc(Cn2c(=O)oc3ccc(OC)cc32)c1

>  <ASSIGNED LABEL>
yes

$$$$
>  <CHEMICAL SMILES>
COc1cc(Cn2c(=O)oc3ccc(C)cc32)cc(OC)c1

>  <ASSIGNED LABEL>
no

$$$$

For this molecule, is measured inhibition 30% or higher? Cc1ccc2oc(=O)n(Cc3cccc(N)c3)c2c1
yes

For this molecule, is measured inhibition 30% or higher? O=c1oc2ccc(F)cc2n1Cc1cccc(O)c1
yes

For this molecule, is measured inhibition 30% or higher? CCc1ccc2oc(=O)n(Cc3cccc(OC)c3)c2c1
no

For this molecule, is measured inhibition 30% or higher? COc1cccc(Cn2c(=O)oc3cc(F)ccc32)c1
yes

###

Molecular target: MIF/CD74 (Macrophage migration inhibitory factor and HLA-DR antigens-associated invariant chain) (Homo sapiens, UniProt P04233+P14174)
Sequence (P14174 whole entry): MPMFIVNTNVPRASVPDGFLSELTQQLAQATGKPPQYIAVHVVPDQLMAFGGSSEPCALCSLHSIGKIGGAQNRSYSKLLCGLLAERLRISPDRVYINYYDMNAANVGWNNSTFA
Sequence (P04233 whole entry): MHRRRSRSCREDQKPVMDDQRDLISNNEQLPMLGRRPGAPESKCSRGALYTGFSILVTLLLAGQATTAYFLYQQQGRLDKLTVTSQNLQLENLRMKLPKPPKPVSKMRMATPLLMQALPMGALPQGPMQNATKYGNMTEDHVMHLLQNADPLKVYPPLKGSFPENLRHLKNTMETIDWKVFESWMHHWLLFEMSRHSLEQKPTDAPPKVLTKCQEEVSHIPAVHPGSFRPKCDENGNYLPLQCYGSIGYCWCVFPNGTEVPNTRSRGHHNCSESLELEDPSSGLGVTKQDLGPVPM
Test: Inhibition of human recombinant biotinylated MIF/CD74 interaction after 30 mins
Property: IC50; scope: individual compounds
Just the number in µM, nothing appended.

>  <CHEMICAL SMILES>
COc1cccc(Cn2c(=O)oc3ccc(C)cc32)c1OC

>  <OBSERVED RESULT>
7

$$$$
>  <CHEMICAL SMILES>
COc1cccc(Cn2c(=O)oc3ccc(OC)cc32)c1

>  <OBSERVED RESULT>
200

$$$$
>  <CHEMICAL SMILES>
COc1cccc(Cn2c(=O)oc3ccc(O)cc32)c1OC

>  <OBSERVED RESULT>
300

$$$$
>  <CHEMICAL SMILES>
O=c1oc2ccc(CO)cc2n1Cc1cccc(O)c1

>  <OBSERVED RESULT>
30

$$$$
>  <CHEMICAL SMILES>
COc1cccc(Cn2c(=O)oc3cc(C)c(C)cc32)c1

>  <OBSERVED RESULT>
0.115

$$$$

# next compound below
Notebook: COc1ccc2oc(=O)n(Cc3cccc(O)c3)c2c1 , IC50 read as 0.08

###

Molecular target: Macrophage migration inhibitory factor (Homo sapiens)
Sequence (P14174 whole entry): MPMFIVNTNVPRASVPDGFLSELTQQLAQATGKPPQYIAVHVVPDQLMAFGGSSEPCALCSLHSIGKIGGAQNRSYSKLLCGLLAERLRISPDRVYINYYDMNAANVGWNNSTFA
Assay: Inhibition of human recombinant MIF tautomerase
Conditions: read-out: IC50
Define the label as satisfied when IC50 is strictly less than 2000 nM and as not satisfied in all remaining cases.

Please review the following examples before continuing.
>  <CHEMICAL SMILES>
CCc1ccc2oc(=O)n(Cc3cccc(O)c3)c2c1

>  <SYSTEM UNDER TEST>
Macrophage migration inhibitory factor (Homo sapiens)

>  <ASSIGNED LABEL>
not satisfied

$$$$
>  <CHEMICAL SMILES>
COc1cccc(Cn2c(=O)oc3ccc(O)cc32)c1OC

>  <SYSTEM UNDER TEST>
Macrophage migration inhibitory factor (Homo sapiens)

>  <ASSIGNED LABEL>
not satisfied

$$$$
>  <CHEMICAL SMILES>
Cc1ccc2c(c1)oc(=O)n2Cc1cccc(O)c1

>  <SYSTEM UNDER TEST>
Macrophage migration inhibitory factor (Homo sapiens)

>  <ASSIGNED LABEL>
satisfied

$$$$

Field: below-cutoff. Rule: recorded IC50 strictly less than 2000 nM. Subject: O=c1oc2ccccc2n1Cc1ccccc1
not satisfied

Field: below-cutoff. Rule: recorded IC50 strictly less than 2000 nM. Subject: COc1ccccc1Cn1c(=O)oc2ccc(O)cc21
not satisfied

###

biological target: MIF/CD74 (Macrophage migration inhibitory factor and HLA-DR antigens-associated invariant chain) (Homo sapiens) (UniProt P14174+P04233); assay: Inhibition of human recombinant biotinylated MIF/CD74 interaction at up to 10 uM after 30 mins; format: protein assay
PROPERTY LABEL: inhibition (%)
Just the number in %, nothing appended.

A selection of reference data follows.
>  <CHEMICAL SMILES>
Cc1cc2oc(=O)n(Cc3cccc(O)c3)c2cc1C

>  <inhibition, %>
32

$$$$
>  <CHEMICAL SMILES>
COc1cccc(Cn2c(=O)oc3cc(C)ccc32)c1

>  <inhibition, %>
24

$$$$
>  <CHEMICAL SMILES>
CCOc1ccccc1Cn1c(=O)oc2ccc(C)cc21

>  <inhibition, %>
45

$$$$
>  <CHEMICAL SMILES>
O=c1oc2ccc(O)cc2n1Cc1cccc(O)c1

>  <inhibition, %>
36

$$$$
>  <CHEMICAL SMILES>
O=c1oc2ccc(F)cc2n1Cc1cccc(O)c1

>  <inhibition, %>
18

$$$$

Notebook: Cc1ccc2oc(=O)n(Cc3cccc(N)c3)c2c1 , inhibition read as 27

Notebook: COc1cccc(Cn2c(=O)oc3ccc(C)cc32)c1 , inhibition read as 42

Notebook: CCOc1cc(O)cc(Cn2c(=O)oc3ccc(C)cc32)c1 , inhibition read as 35

Notebook: CCOc1cccc(Cn2c(=O)oc3ccc(C)cc32)c1 , inhibition read as 30

Notebook: O=c1oc2cc(O)ccc2n1Cc1ccccc1 , inhibition read as 22

Notebook: Cc1ccc2c(c1)oc(=O)n2Cc1ccccc1 , inhibition read as 25

Notebook: COc1cc(Cn2c(=O)oc3ccc(C)cc32)cc(OC)c1 , inhibition read as 11

Notebook: COc1ccccc1Cn1c(=O)oc2ccc(O)cc21 , inhibition read as 27

###

Property: inhibition; scope: individual compounds
molecular target: Macrophage migration inhibitory factor (Homo sapiens) (UniProt P14174); test: Inhibition of human recombinant MIF tautomerase at up to 0.1 uM
Just the number in %, nothing appended.

A selection of reference data follows.
>  <CHEMICAL SMILES>
O=c1oc2cc(O)ccc2n1Cc1ccccc1

>  <UNIT STRING>
%

>  <inhibition>
28

$$$$
>  <CHEMICAL SMILES>
COc1cccc(Cn2c(=O)oc3ccc(C)cc32)c1OC

>  <UNIT STRING>
%

>  <inhibition>
32

$$$$
>  <CHEMICAL SMILES>
CCOc1cc(O)cc(Cn2c(=O)oc3ccc(C)cc32)c1

>  <UNIT STRING>
%

>  <inhibition>
30

$$$$

Notebook: COc1ccc2oc(=O)n(Cc3cccc(O)c3)c2c1 , inhibition read as 10

Notebook: Cc1cc2oc(=O)n(Cc3cccc(O)c3)c2cc1C , inhibition read as 33

Notebook: COc1cccc(Cn2c(=O)oc3cc(C)ccc32)c1 , inhibition read as 16

Notebook: COc1cc(O)cc(Cn2c(=O)oc3ccc(C)cc32)c1 , inhibition read as 12

Notebook: CCOc1ccccc1Cn1c(=O)oc2ccc(C)cc21 , inhibition read as 21

Notebook: O=c1oc2ccc(O)cc2n1Cc1cccc(O)c1 , inhibition read as 25

Notebook: CCOc1cccc(Cn2c(=O)oc3ccc(C)cc32)c1 , inhibition read as 20

Notebook: COc1cccc(Cn2c(=O)oc3cc(C)c(C)cc32)c1 , inhibition read as 25

Notebook: COc1cccc(Cn2c(=O)oc3ccc(CO)cc32)c1 , inhibition read as 44

###

Property: inhibition; scope: individual compounds
biological target: MIF/CD74 (Macrophage migration inhibitory factor and HLA-DR antigens-associated invariant chain) (Homo sapiens) (UniProt P14174+P04233); experiment: Inhibition of human recombinant biotinylated MIF/CD74 interaction at up to 10 uM after 30 mins; format: protein assay
Just the number in %, nothing appended.

Notebook: COc1cccc(Cn2c(=O)oc3ccc(CO)cc32)c1 , inhibition read as 27

Notebook: Cc1ccc2oc(=O)n(Cc3cccc(O)c3)c2c1 , inhibition read as 40

Notebook: Cc1ccc2c(c1)oc(=O)n2Cc1cccc(O)c1 , inhibition read as 10

Notebook: COc1cccc(Cn2c(=O)oc3cc(F)ccc32)c1 , inhibition read as 15

Notebook: CCc1ccc2oc(=O)n(Cc3cccc(O)c3)c2c1 , inhibition read as 19

Notebook: CCc1ccc2oc(=O)n(Cc3cccc(OC)c3)c2c1 , inhibition read as 15

Notebook: O=c1oc2ccccc2n1Cc1ccccc1 , inhibition read as 18

Notebook: COc1cc(O)cc(Cn2c(=O)oc3ccc(C)cc32)c1 , inhibition read as 22
